Numbers sourced from patent US20240270826A1.

Record form. Attribute: MN100. Fill in for each entry.
# Test System: SARS-CoV-2 spike protein S on live virus, Wuhan (strain SARS-CoV-2/Canada/VIDO-01/2020) (SARS-CoV-2 (Wuhan), UniProt P0DTC2 14-1273)
# Experiment Description: cell-based or functional assay
Please respond with the number in nM and leave the unit unwritten.

# return recorded MN100 for entry NRCoV2-04 VHH-Fc (Fc fusion, bivalent VHH-Fc) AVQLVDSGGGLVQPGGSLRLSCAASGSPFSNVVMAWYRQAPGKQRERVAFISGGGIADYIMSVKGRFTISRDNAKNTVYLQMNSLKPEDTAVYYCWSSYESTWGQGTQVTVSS
1.25

# return recorded MN100 for entry NRCoV2-SR02 VHH-Fc (Fc fusion, bivalent VHH-Fc) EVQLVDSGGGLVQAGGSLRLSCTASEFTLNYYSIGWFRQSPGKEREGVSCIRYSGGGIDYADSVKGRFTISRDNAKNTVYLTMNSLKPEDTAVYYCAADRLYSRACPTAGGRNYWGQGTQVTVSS
6.25

# return recorded MN100 for entry NRCoV2-1d VHH-Fc (Fc fusion, bivalent VHH-Fc) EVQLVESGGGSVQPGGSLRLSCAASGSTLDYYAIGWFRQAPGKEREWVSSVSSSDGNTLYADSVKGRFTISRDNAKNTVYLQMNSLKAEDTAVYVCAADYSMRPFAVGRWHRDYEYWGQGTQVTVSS
0.25

# return recorded MN100 for entry NRCoV2-SR01 VHH-Fc (Fc fusion, bivalent VHH-Fc) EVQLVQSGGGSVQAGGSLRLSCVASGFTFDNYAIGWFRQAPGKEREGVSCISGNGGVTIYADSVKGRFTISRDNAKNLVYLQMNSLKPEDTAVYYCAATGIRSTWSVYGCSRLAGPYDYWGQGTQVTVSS
6.25
